Catalogue of inhibition values
# measurement-target: Prostaglandin E synthase (Homo sapiens)
# Sequence (whole entry): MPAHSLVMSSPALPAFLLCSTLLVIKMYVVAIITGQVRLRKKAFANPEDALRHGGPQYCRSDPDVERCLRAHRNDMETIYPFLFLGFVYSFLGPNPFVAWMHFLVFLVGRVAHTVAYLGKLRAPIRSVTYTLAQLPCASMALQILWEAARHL
# protocol-details: Inhibition of recombinant human mPGES-1 expressed in CHO cells assessed as reduction in PGE2 formation at 1 uM using PGH2 a substrate preincubated for 10 mins followed by substrate addition measured after 1 min relative to control
# Type: cell-based
# number only, unit % dropped from output

Before answering, review these 3 worked examples.
CC1(C)Oc2cc(-c3cccc(C(F)(F)F)c3)ccc2-c2[nH]c(-c3c(F)cccc3Cl)nc21 :: 91.4
CC1(C)Oc2cc(-c3ccc(C(F)(F)F)cc3)ccc2-c2[nH]c(-c3c(F)cccc3Cl)nc21 :: 81.4
CC1(C)Oc2cc(Cl)ccc2-c2[nH]c(-c3c(Br)cccc3Br)nc21 :: 74

Asked: # inhibition lookup, item CC1(C)Oc2cc(C(=O)Nc3ccc(C(F)(F)F)cc3)ccc2-c2[nH]c(-c3c(F)cccc3Cl)nc21
Given back: 86.7

Asked: Would you mind doing CC1(C)Oc2cc(Br)ccc2-c2[nH]c(-c3c(Br)cccc3Br)nc21 as well?
Given back: 68.6

The reported numbers originate from ChEMBL document CHEMBL4028818.
